- Tested on: human red blood cells (hRBC)
- Type: cell-based
- EXPERIMENTAL PARAMETERS: red cells of human, 1 h
Where a SMILES comes first, the peptide text is derived from it. [ ]: non-standard residue; d: D form. Tle = CC(C)(C)[C@H](N)C(=O)O; dDab = NCC[C@@H](N)C(=O)O; hSer = N[C@@H](CCO)C(=O)O; Orn = NCCC[C@H](N)C(=O)O; Dab = NCC[C@H](N)C(=O)O
QUANTITY: Hemolysis at 100 μg/ml (%)
Answer format: numeric, % implied, no suffix.

COMPOUND: CC(C)[C@@H]1NC(=O)[C@@H]2CCCN2C(=O)[C@H]2CCCN2C(=O)[C@H](CO)NC(=O)[C@H](C)NC(=O)[C@H](C(C)(C)C)NC(=O)[C@H](CCN)NC(=O)[C@H](Cc2c[nH]c3ccccc23)NC(=O)[C@H](CCN)NC(=O)[C@@H](CCN)NC(=O)[C@H](CCCN)NC(=O)[C@H](CCN)NC(=O)[C@H](Cc2ccc(O)cc2)NC(=O)[C@H](Cc2c[nH]cn2)NC1=O [compound 7] (cyclo(VHY[Dab][Orn][dDab][Dab]W[Dab][Tle]AS[dP]P))
ASSAY TARGET: human red blood cells (hRBC)
Hemolysis at 100 μg/ml / %: 1

Report value only: Hemolysis at 100 μg/ml, human red blood cells (hRBC), C[C@@H]1NC(=O)[C@H](C(C)(C)C)NC(=O)[C@H](CCO)NC(=O)[C@H](Cc2c[nH]c3ccccc23)NC(=O)[C@H](CCN)NC(=O)[C@@H](CCN)NC(=O)[C@H](CCCN)NC(=O)[C@H](CCN)NC(=O)[C@H](Cc2ccc(O)cc2)NC(=O)[C@H](Cc2c[nH]cn2)NC(=O)[C@H](Cc2c[nH]c3ccccc23)NC(=O)[C@@H]2CCCN2C(=O)[C@H]2CCCN2C(=O)[C@H](CO)NC1=O [Ex. 1] (cyclo(WHY[Dab][Orn][dDab][Dab]W[hSer][Tle]AS[dP]P))
1

----------
Each item that follows carries a reported Hemolysis at 100 μg/ml.
- Tested on: human red blood cells (hRBC)
- Assay type: cell-based
- EXPERIMENTAL PARAMETERS: red cells of human, 1 h
Where a SMILES comes first, the peptide text is derived from it. [ ]: non-standard residue; d: D form. Cha = N[C@@H](CC1CCCCC1)C(=O)O; Chg = N[C@H](C(=O)O)C1CCCCC1; Tle = CC(C)(C)[C@H](N)C(=O)O; dDab = NCC[C@@H](N)C(=O)O; Orn = NCCC[C@H](N)C(=O)O; Dab = NCC[C@H](N)C(=O)O
Answer format: numeric, % implied, no suffix.

Record excerpt, results attached:
COMPOUND: C[C@@H]1NC(=O)[C@H](C(C)(C)C)NC(=O)[C@H](CCN)NC(=O)[C@H](Cc2c[nH]c3ccccc23)NC(=O)[C@H](CCN)NC(=O)[C@@H](CCN)NC(=O)[C@H](CCCCN)NC(=O)[C@H](CCN)NC(=O)[C@H](CC2CCCCC2)NC(=O)[C@H](Cc2c[nH]c3ccccc23)NC(=O)[C@H](Cc2c[nH]c3ccccc23)NC(=O)[C@@H]2CCCN2C(=O)[C@H]2CCCN2C(=O)[C@H](CO)NC1=O [Ex. 11] (cyclo(WW[Cha][Dab]K[dDab][Dab]W[Dab][Tle]AS[dP]P))
Hemolysis at 100 μg/ml, %: 1
--
COMPOUND: CC(C)C[C@@H]1NC(=O)[C@@H]2CCCN2C(=O)[C@H]2CCCN2C(=O)[C@H](CO)NC(=O)[C@H](CO)NC(=O)[C@H](C2CCCCC2)NC(=O)[C@H](CCN)NC(=O)[C@H](Cc2c[nH]c3ccccc23)NC(=O)[C@H](CCN)NC(=O)[C@@H](CCN)NC(=O)[C@H](CCCN)NC(=O)[C@H](CCN)NC(=O)[C@H](C(C)(C)C)NC(=O)[C@H](Cc2c[nH]c3ccccc23)NC1=O [compound 36] (cyclo(LW[Tle][Dab][Orn][dDab][Dab]W[Dab][Chg]SS[dP]P))
Hemolysis at 100 μg/ml, %: 1

Report value only: Hemolysis at 100 μg/ml, human red blood cells (hRBC), CC(C)C[C@@H]1NC(=O)[C@@H]2CCCN2C(=O)[C@H]2CCCN2C(=O)[C@H](CO)NC(=O)[C@H](C)NC(=O)[C@H](C(C)(C)C)NC(=O)[C@H](CCN)NC(=O)[C@H](Cc2c[nH]c3ccccc23)NC(=O)[C@H](CCN)NC(=O)[C@@H](CCN)NC(=O)[C@H](CCCN)NC(=O)[C@H](CCN)NC(=O)[C@H](Cc2ccc(O)cc2)NC(=O)[C@H](Cc2c[nH]cn2)NC1=O [compound 5] (cyclo(LHY[Dab][Orn][dDab][Dab]W[Dab][Tle]AS[dP]P))
0

Report value only: Hemolysis at 100 μg/ml, human red blood cells (hRBC), CC(C)C[C@@H]1NC(=O)[C@@H]2CCCN2C(=O)[C@H]2CCCN2C(=O)[C@H](CO)NC(=O)[C@H](C)NC(=O)[C@H](C(C)(C)C)NC(=O)[C@H](CCN)NC(=O)[C@H](Cc2c[nH]c3ccccc23)NC(=O)[C@H](CCN)NC(=O)[C@@H](CCN)NC(=O)[C@H](CCCN)NC(=O)[C@H](CCN)NC(=O)[C@H](Cc2c[nH]c3ccccc23)NC(=O)[C@H](Cc2c[nH]cn2)NC1=O [compound 24] (cyclo(LHW[Dab][Orn][dDab][Dab]W[Dab][Tle]AS[dP]P))
1

Report value only: Hemolysis at 100 μg/ml, human red blood cells (hRBC), CC(C)C[C@@H]1NC(=O)[C@@H]2CCCN2C(=O)[C@H]2CCCN2C(=O)[C@H](CO)NC(=O)[C@H](CO)NC(=O)[C@H](C(C)(C)C)NC(=O)[C@H](CCN)NC(=O)[C@H](Cc2c[nH]c3ccccc23)NC(=O)[C@H](CCN)NC(=O)[C@@H](CCN)NC(=O)[C@H](CCCN)NC(=O)[C@H](CCN)NC(=O)[C@H](CC2CCCCC2)NC(=O)[C@H](Cc2c[nH]c3ccccc23)NC1=O [compound 37] (cyclo(LW[Cha][Dab][Orn][dDab][Dab]W[Dab][Tle]SS[dP]P))
1
